Each entry below lists one item and its recorded Bliss excess value.
tested on: K5 (Thyroid Gland Carcinoma); experiment: Bliss excess, mean over the matrix (fraction); higher = more synergy;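 note: after 72 h of two-drug dosing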
OBSERVABLE: Bliss excess

1. CC1(C)CCC(CN2CCN(c3ccc(C(=O)NS(=O)(=O)c4ccc(NCC5CCOCC5)c([N+](=O)[O-])c4)c(Oc4cnc5[nH]ccc5c4)c3)CC2)=C(c2ccc(Cl)cc2)C1 [Venetoclax] + CCN(CCO)CCCOc1ccc2c(Nc3cc(CC(=O)Nc4cccc(F)c4)[nH]n3)ncnc2c1 [AZD2811] (first compound max 1 µM, 7x7, partner max 1 µM): -0.0231
2. Cn1cnc2c(F)c(Nc3ccc(Br)cc3Cl)c(C(=O)NOCCO)cc21 [Selumetinib] + C=CCn1c(=O)c2cnc(Nc3ccc(N4CCN(C)CC4)cc3)nc2n1-c1cccc(C(C)(C)O)n1 [AZD1775] (first compound max 10 µM, partner max 1 µM): -0.0375
